src = ChEMBL document CHEMBL1129062

- Tested on: MCF7
- Test protocol: Tested against […] breast carcinoma (doxorubicin resistant) cell line in the sulforhodamine B assay.
- Type: functional, cell-based
- Conditions used: Homo sapiens
Property: IC50
I'd appreciate it if you wrote the number followed by its unit.

Name the reported IC50 value associated with the compound COc1ccc2c3c(c4ccccc4cc13)C(=O)N(CCN(C)C)C2=O 0.27 µM

Quick one: IC50 of CN(C)CCN1C(=O)c2cccc3c(N)c4ccccc4c(c23)C1=O ? 0.071 µM

Form field: reported IC50 of CN(C)CCN1C(=O)c2ccc(I)c3cc4ccccc4c(c23)C1=O 0.03 µM

Consider the compound O=C1c2c(O)ccc(O)c2C(=O)c2c(NCCNCCO)ccc(NCCNCCO)c21 and give its measured IC50. 0.072 µM

Which IC50 value is on record for CCSc1ccc2c3c(c4ccccc4cc13)C(=O)N(CCN(C)C)C2=O ? 0.075 µM

---

- Species on record: Rattus norvegicus
- Test protocol: Compound was tested for Cardiotoxicity by a neonatal rat heart myocyte assay.
- Assay type: functional
Property: IC50 (nM)
Give the number; nM is assumed, so skip it.

Looking for the measured IC50 of Cc1ccc2c3c(c4ccccc4cc13)C(=O)N(CCN(C)C)C2=O , can you help? 989

---

- Test system: OVCAR-3
- Test protocol: Inhibitory activity against OVCAR-3 cell line
- Type: functional, cell-based
- Conditions used: Homo sapiens
Consider the following compounds; for each one, report its IC50.
Numeric only. Scale: nM

Returns the measured IC50 for the input compound. Input: CCSc1ccc2c3c(c4ccccc4cc13)C(=O)N(CCN(C)C)C2=O 19

Consider the compound shown here: CNCCN1C(=O)c2ccc(OC)c3cc4ccccc4c(c23)C1=O What is its recorded IC50? 540

Give its IC50 value. Item: CCCOc1ccc2c3c(c4ccccc4cc13)C(=O)N(CCN(C)C)C2=O 364

What does the data say about its IC50? Entry: CCc1ccc2c3c(c4ccccc4cc13)C(=O)N(CCN(C)C)C2=O 522

Fill in: IC50 of Cc1c2ccccc2c2c3c(cccc13)C(=O)N(CCN(C)C)C2=O is ___ 28

# query: IC50 of entry CSc1ccc2c3c(c4ccccc4cc13)C(=O)N(CCN(C)C)C2=O 8.7

Please report the recorded IC50 for CN(C)CCN1C(=O)c2ccc(S(C)(=O)=O)c3cc4ccccc4c(c23)C1=O . 93

Reported IC50, compound CNCCN1C(=O)c2ccc(Cl)c3cc4ccccc4c(c23)C1=O : ____ 267

Sample CN(C)CCN1C(=O)c2ccc(Cl)c3cc4ccccc4c(c23)C1=O — what was its IC50? 116

Given the entry Cc1ccc2c3c(c4ccccc4cc13)C(=O)N(CCN(C)C)C2=O , report its measured IC50. 217

Which measured IC50 value corresponds to CN(C)CCN1C(=O)c2ccc(N(C)C)c3cc4ccccc4c(c23)C1=O ? 503

# query: IC50 of entry CN(C)CCN1C(=O)c2ccc(O)c3cc4ccccc4c(c23)C1=O 723

For the compound CN(C)CCN1C(=O)c2cccc3c(O)c4ccccc4c(c23)C1=O , what IC50 is on record? 1180

Record request: IC50 value, item CN(C)CCOc1ccc2c3c(c4ccccc4cc13)C(=O)N(CCN(C)C)C2=O 31

What does the record list as IC50 for CN(C)CCN1C(=O)c2cccc3c(Cl)c4ccccc4c(c23)C1=O ? 386

Item under review: CN(C)CCN1C(=O)c2ccc(Cl)c3cc4c(Cl)cccc4c(c23)C1=O . Reported IC50? 945

Which measured IC50 value corresponds to CCOc1ccc2c3c(c4ccccc4cc13)C(=O)N(CCN(C)C)C2=O ? 0.8

Given the entry CN(C)CCNc1ccc2c3c(c4cccc(Cl)c4cc13)C(=O)N(CCN(C)C)C2=O , report its measured IC50. 176

Look at this compound and give its reported IC50. CSc1c2ccccc2c2c3c(cccc13)C(=O)N(CCN(C)C)C2=O 750

Look at this compound and give its reported IC50. CC(=O)Nc1ccc2c3c(c4ccccc4cc13)C(=O)N(CCN(C)C)C2=O 6080

Suppose we examine the compound CN(C)CCN1C(=O)c2ccc(I)c3cc4ccccc4c(c23)C1=O ; what IC50 value has been reported? 416

Need IC50 of CN(C)CCN1C(=O)c2ccc(NCCO)c3cc4ccccc4c(c23)C1=O , thanks. 19

What measured IC50 goes with CN(C)CCN1C(=O)c2cccc3c(N)c4ccccc4c(c23)C1=O ? 12

Which value of IC50 has been reported for CN(C)CCNc1ccc2c3c(c4ccccc4cc13)C(=O)N(CCN(C)C)C2=O in the records? 63

---

- Test system: MCF7
- Test protocol: Tested against […] breast carcinoma (doxorubicin resistant) cell line in the sulforhodamine B assay.
- Type: functional, cell-based
- Conditions used: Homo sapiens
Property: log10(IC50) (log10 of the value in nM)
Please keep in mind that the values are log10 of IC50 expressed in nM.

Item CCOc1c2ccccc2c2c3c(cccc13)C(=O)N(CCN(C)C)C2=O has what recorded log10(IC50)? 2.30

What value of log10(IC50) has been reported for the following molecule? CN(C)CCN1C(=O)c2ccc(N(C)C)c3cc4ccccc4c(c23)C1=O 2.11

Quick one: log10(IC50) of CN(C)CCNc1ccc2c3c(c4ccccc4cc13)C(=O)N(CCN(C)C)C2=O ? 1.15

State the recorded log10(IC50) for this entry: CN(C)CCOc1ccc2c3c(c4ccccc4cc13)C(=O)N(CCN(C)C)C2=O 0.95

What measured log10(IC50) goes with CSc1ccc2c3c(c4ccccc4cc13)C(=O)N(CCN(C)C)C2=O ? 1.08

---

- Tested on: MCF7
- Test protocol: Tested against […] breast carcinoma (mitoxantrone resistant)cell line in the sulforhodamine B assay.
- Assay type: functional, cell-based
- Conditions used: Homo sapiens
Simple rule here: IC50 less than 40 nM is Criterion met, otherwise Criterion not met.

Strictly below 40 nM: is that where IC50 of COc1ccc2c3c(c4ccccc4cc13)C(=O)N(CCN(C)C)C2=O sits? Criterion met

Record CCOc1ccc2c3c(c4ccccc4cc13)C(=O)N(CCN(C)C)C2=O : is its IC50 strictly below 40 nM? Criterion met

Just wondering, is IC50 of CN(C)CCNc1ccc2c3c(c4ccccc4cc13)C(=O)N(CCN(C)C)C2=O below 40 nM? Criterion met

Dear colleague, could you confirm whether IC50 of CN(C)CCOc1ccc2c3c(c4ccccc4cc13)C(=O)N(CCN(C)C)C2=O falls below 40 nM? Thanks. Criterion met

Bench note: check whether CSc1ccc2c3c(c4ccccc4cc13)C(=O)N(CCN(C)C)C2=O shows IC50 below 40 nM Criterion not met

Lab log: compare recorded IC50 with 40 nM; is it strictly lower for CN(C)CCN1C(=O)c2cccc3cc4ccccc4c(c23)C1=O [AZONAFIDE] ? Criterion met

Bench note: check whether COc1c2ccccc2c2c3c(cccc13)C(=O)N(CCN(C)C)C2=O shows IC50 below 40 nM Criterion not met

Is it true that IC50 reported for CN(C)CCN1C(=O)c2ccc(I)c3cc4ccccc4c(c23)C1=O is less than 40 nM? Criterion met

Quick check: does CN(C)CCN1C(=O)c2cccc3c(N)c4ccccc4c(c23)C1=O have IC50 under 40 nM? Criterion not met

For CN(C)CCN1C(=O)c2ccc(N(C)C)c3cc4ccccc4c(c23)C1=O , is the recorded IC50 below the cut-off of 40 nM? Criterion not met

Answer whether the compound CCOc1c2ccccc2c2c3c(cccc13)C(=O)N(CCN(C)C)C2=O has IC50 strictly less than 40 nM Criterion not met

Field: below-cutoff. Rule: recorded IC50 strictly less than 40 nM. Subject: CCSc1ccc2c3c(c4ccccc4cc13)C(=O)N(CCN(C)C)C2=O Criterion met

# check: IC50 < 40 nM for CCCOc1ccc2c3c(c4ccccc4cc13)C(=O)N(CCN(C)C)C2=O Criterion not met

Strictly below 40 nM in IC50? CN(C)CCN1C(=O)c2ccc(Cl)c3cc4ccccc4c(c23)C1=O Criterion not met

---

- Species: Rattus norvegicus
- Test protocol: Cardiotoxicity by a neonatal rat heart myocyte assay
- Assay type: toxicity
Label 1 (yes) when IC50 is strictly below 8 µM; otherwise label 0 (no).

hey, is IC50 for CSc1ccc2c3c(c4ccccc4cc13)C(=O)N(CCN(C)C)C2=O lower than 8 µM or not? 1 (yes)

Strictly below 8 µM in IC50? CCOc1ccc2c3c(c4ccccc4cc13)C(=O)N(CCN(C)C)C2=O 1 (yes)

is_below(IC50, 8 µM) for CCSc1ccc2c3c(c4ccccc4cc13)C(=O)N(CCN(C)C)C2=O ? 1 (yes)

Is IC50 strictly under 8 µM for the entry CN(C)CCN1C(=O)c2cccc3cc(N)cc(c23)C1=O [AMONAFIDE] ? 0 (no)

Please let me know if CN(C)CCN1C(=O)c2ccc(I)c3cc4ccccc4c(c23)C1=O shows IC50 below 8 µM. 0 (no)
